Data origin, for the record: ChEMBL document CHEMBL1125808

- Test system: Daudi
- measurementNotes: Concentration of compound to inhibit half of cell growth in malignant human lymphocytes: Daudi lymphoma cells
- Format: functional, cell-based
- Design: unit not given here
Please use t for IC50 under 4 and f for everything else, ties included.

* COC(=O)CC(O)[C@H]1OCC/C(=C\COCc2ccccc2)C1O[Si](C)(C)C(C)(C)C (stereo not given in full) | f
* O=C1CC(O)[C@H]2OCC/C(=C\COCc3ccccc3)C2O1 (stereo not given in full) | t
* CCOC(=O)/C=C/C=C/[C@H]1OCC/C(=C\C(=O)OCC)[C@@H]1O[Si](C)(C)C(C)(C)C | t
* CCOC(=O)/C=C/[C@H]1OCC/C(=C\C(=O)OCC)[C@@H]1O[Si](C)(C)C(C)(C)C | f

Now turn to the next molecule.
// query API: query returns whether the molecule falls strictly under 4 in IC50. Query: CCOC(=O)/C=C/[C@H]1OCC/C(=C\COCc2ccccc2)[C@@H]1O[Si](C)(C)C(C)(C)C
// result t
